# MEASURED TARGET: MetRS (S. aureus) (Staphylococcus aureus, UniProt Q5HII6)
# Sequence (Q5HII6 whole entry): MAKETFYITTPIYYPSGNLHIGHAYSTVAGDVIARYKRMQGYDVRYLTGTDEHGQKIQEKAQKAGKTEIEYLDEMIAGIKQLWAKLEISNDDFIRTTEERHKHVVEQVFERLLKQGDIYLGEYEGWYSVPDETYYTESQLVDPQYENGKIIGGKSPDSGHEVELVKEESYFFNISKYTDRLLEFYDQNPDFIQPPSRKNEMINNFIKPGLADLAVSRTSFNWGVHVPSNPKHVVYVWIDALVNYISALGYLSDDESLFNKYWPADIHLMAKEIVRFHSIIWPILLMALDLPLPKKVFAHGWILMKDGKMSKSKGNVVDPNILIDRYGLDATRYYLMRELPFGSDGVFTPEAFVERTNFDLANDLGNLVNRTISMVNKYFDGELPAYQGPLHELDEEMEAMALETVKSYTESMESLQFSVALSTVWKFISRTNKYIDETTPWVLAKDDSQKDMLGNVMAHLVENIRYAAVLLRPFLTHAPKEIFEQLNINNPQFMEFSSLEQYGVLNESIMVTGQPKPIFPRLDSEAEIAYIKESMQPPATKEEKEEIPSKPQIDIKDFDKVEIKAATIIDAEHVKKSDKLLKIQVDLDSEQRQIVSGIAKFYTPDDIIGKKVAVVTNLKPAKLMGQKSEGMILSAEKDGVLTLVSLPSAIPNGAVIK
One threshold, 200 nM, splits the recorded IC50 values: lower ones are true (1), equal or higher ones are false (0).

Answered cases to consult:
{"columns": ["COMPOUND", "DISCRETE LABEL"],
 "data": [
  ["C[C@@H](CNCc1cc(Cl)cc(Cl)c1)CNc1nc2cccnc2[nH]1 [Compound 1655]", "true (1)"],
  ["CN(CCN[C@@H]1CCNc2c(Cl)cc(Cl)cc21)c1nc2nc(F)ccc2[nH]1 [Compound 1919]", "false (0)"],
  ["Clc1cc(Cl)cc(CN[C@H]2CCCN(c3nc4nc(Cl)ccc4[nH]3)C2)c1 [Compound 1856]", "false (0)"],
  ["COc1ccc(Oc2cc(NCc3nc4ccc(F)nc4[nH]3)nc(N3CCN(c4cnccn4)CC3)n2)c(Cl)c1 [Compound 1797]", "true (1)"],
  ["CC(Cc1nc2ccc(Cl)cc2[nH]1)NCc1cc(Cl)cc(Cl)c1 (centres unmarked) [Compound 1794]", "false (0)"]
]}

Just wondering, is IC50 of Clc1ccc2[nH]c([C@H]3CCCN(Cc4ccc(Cl)c(Cl)c4)C3)nc2n1 [Compound 1870] below 200 nM? false (0)

Just wondering, is IC50 of O=C(CNc1nc2ccc(Cl)nc2[nH]1)NCc1cc(Cl)cc(Cl)c1 [Compound 1970] below 200 nM? false (0)

----------
Dear all, this message contains pIC50 results, target or system MetRS (S. aureus) (Staphylococcus aureus, UniProt Q5HII6).
Answers are plain numbers, as −log10 of the molar value.

Some molecules with known pIC50 results, for comparison:
{"columns": ["MOLECULE SMILES", "NUMERIC RESULT"],
 "data": [
  ["O=C(NCc1nc2cccnc2[nH]1)OCCc1ccc(Cl)cc1Cl", 7.08],
  ["COc1ccc(Oc2nc(NCc3nc4ccc(F)nc4[nH]3)nc(NCc3nc4ccc(F)nc4[nH]3)n2)c(Cl)c1", 6.48],
  ["Clc1cc(Cl)cc(CNCCNc2nc3ccc(Cl)nc3[nH]2)c1", 5.51]
]}

Batch lookup, pIC50 per entry.
1. CN(CCN(CCN(C)c1nc2nc(F)ccc2[nH]1)[C@@H]1CCNc2c(Cl)cc(Cl)cc21)c1nc2nc(F)ccc2[nH]1
2. COC(=O)N(CCN(C)c1nc2nc(Cl)ccc2[nH]1)Cc1cc(Cl)cc(Cl)c1
3. CC(=O)N(CCN(C)c1nc2nc(Cl)ccc2[nH]1)[C@@H]1CCNc2c(Cl)cc(Cl)cc21

1: 6.57; 2: 6.46; 3: 5.90

Suppose we examine the molecule O=C(CCOc1ccc(Cl)cc1Cl)NCc1nc2ccc(F)nc2[nH]1 ; what pIC50 value has been reported? 5.77

----------
# MEASURED TARGET: MetRS (Giardia) (Giardia intestinalis, UniProt A8BY75)
# Sequence (A8BY75 entry or part of it): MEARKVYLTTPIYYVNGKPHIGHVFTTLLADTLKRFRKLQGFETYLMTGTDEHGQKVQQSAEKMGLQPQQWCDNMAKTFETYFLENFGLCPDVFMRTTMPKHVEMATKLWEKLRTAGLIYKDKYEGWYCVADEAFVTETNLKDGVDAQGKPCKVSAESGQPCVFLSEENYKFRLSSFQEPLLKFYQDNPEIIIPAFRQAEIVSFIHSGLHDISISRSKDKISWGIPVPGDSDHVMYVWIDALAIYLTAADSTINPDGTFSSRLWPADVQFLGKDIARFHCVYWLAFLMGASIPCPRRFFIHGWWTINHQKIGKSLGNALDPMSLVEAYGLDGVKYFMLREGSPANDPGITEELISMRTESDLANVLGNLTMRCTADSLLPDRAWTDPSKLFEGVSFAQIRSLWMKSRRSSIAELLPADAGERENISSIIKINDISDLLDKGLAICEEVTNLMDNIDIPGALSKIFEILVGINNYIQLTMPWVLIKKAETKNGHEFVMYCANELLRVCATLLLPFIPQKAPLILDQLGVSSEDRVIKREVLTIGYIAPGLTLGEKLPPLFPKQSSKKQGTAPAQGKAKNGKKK
REPORTED METRIC: IC50 (nM)
Numbers only, in nM.

Some compounds with known IC50 results, for comparison:
{"columns": ["COMPOUND", "UNIT ABBREVIATION", "IC50"],
 "data": [
  ["Fc1ccc2nc(NCCCN[C@@H]3CCNc4c(Cl)cc(Cl)cc43)[nH]c2n1 [Compound 1717]", "nM", 3],
  ["Clc1cc(Cl)cc(CNCCCNc2nc3ncccc3[nH]2)c1 [Compound 1575]", "nM", 36],
  ["Fc1ccc2nc(NCCCNCc3cc(Cl)cc(Cl)c3)[nH]c2n1 [Compound 1614]", "nM", 9]
]}

Now let's try a different one.
Suppose we examine the compound Fc1ccc2nc(NCCCN[C@@H]3CCOc4c(Cl)cc(Cl)cc43)[nH]c2n1 [Compound 1709] ; what IC50 value has been reported? 2
